The origin of these recorded values is PubChem BioAssay.

Collected composite z-score values appear next to each entry.
Test system: Human papillomavirus type 1a protein E7 (residues 44-93)
Assay: HPV1a E7 fragment binders on microarrays, primary screen, biochemical, small-molecule microarray, residues 44-93, 635 nm fluorescence (AID 1108);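 note: E7 fragment applied at 1 µg/mL in TBST for 1 h at 4 C; score combines spot fluorescence with its signal to noise ratio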
Conditions: small-molecule microarray binding, fluorescence 635 nm; higher = more signal
Recorded Metric: composite z-score

[[record]]
chemical_string = "C=CC[C@@]1(C(=O)O)N=C(c2ccc(OCCCO)cc2)O[C@@H]1c1ccccc1N=[N+]=[N-]"
recorded_metric = "composite z-score"
result_value = 0.411

[[record]]
chemical_string = "COCCOC(=O)N1C(=O)[C@@]2(c3cc(C#CCCO)ccc31)[C@H](C(=O)NC[C@H](O)c1ccccc1)[C@H]1C(=O)O[C@H](c3ccccc3)[C@H](c3ccccc3)N1[C@@H]2c1ccc(O)cc1"
recorded_metric = "composite z-score"
result_value = 0.727

[[record]]
chemical_string = "COCCOC(=O)N1C(=O)[C@@]2(c3cc(C#Cc4ccc(OC)cc4)ccc31)[C@H](C(=O)N1CCN(c3ncccn3)CC1)[C@H]1C(=O)O[C@H](c3ccccc3)[C@H](c3ccccc3)N1[C@@H]2c1ccc(O)cc1"
recorded_metric = "composite z-score"
result_value = 0.519

[[record]]
chemical_string = "C=CCOC(=O)[C@H]1[C@@H]2C(=O)O[C@@H](c3ccccc3)[C@@H](c3ccccc3)N2[C@@H](c2ccc(OCCOC(=O)[C@@H]3C[C@@H]4C(=O)NCC(=O)N4[C@@H]3c3ccc(O)cc3)cc2)[C@]12C(=O)Nc1ccccc12"
recorded_metric = "composite z-score"
result_value = 0.919

[[record]]
chemical_string = "CN(C)C(=O)[C@@]1(CCC(=O)OC(C)(C)C)N=C(c2ccc(OCCCO)cc2)O[C@H]1c1ccccc1"
recorded_metric = "composite z-score"
result_value = 1.49

[[record]]
chemical_string = "COc1ccc(C#Cc2ccc3c(c2)[C@]2(C(=O)N3)[C@H](C(=O)NC[C@H](O)c3ccccc3)[C@H]3C(=O)O[C@H](c4ccccc4)[C@H](c4ccccc4)N3[C@@H]2c2ccccc2OCCO)cc1"
recorded_metric = "composite z-score"
result_value = 0.272

[[record]]
chemical_string = "C=CC(=C)C1=CCO[C@@H]1[C@H]1CCCN1S(=O)(=O)c1ccccc1[N+](=O)[O-]"
recorded_metric = "composite z-score"
result_value = -0.0291


----------
Target: Carbonic anhydrase 2 (Homo sapiens) (UniProt P00918)
Assay: CAII small-molecule binders, profiling panel, biochemical, small-molecule microarray, Alexa647-labelled CAII (AID 1122)
Settings: CAII-A647 binding fluorescence, higher = more signal
Collected composite z-score values appear next to each entry.
Recorded Metric: composite z-score

[[record]]
molecule = "COc1ccc(CCNC(=O)[C@@H]2c3ccccc3C(=O)N(Cc3ccc(OC(F)(F)F)cc3)[C@H]2c2ccc(CO)cc2)cc1"
result_value = 0.497

[[record]]
molecule = "Cc1ccc(S[C@]2(C(=O)NC3CC3)CC(=O)N(C3CCCCC3)[C@@H]2c2ccc(CO)cc2I)cc1"
result_value = 0.408

[[record]]
molecule = "O=C(O)[C@H]1C[C@H]2C(=O)NCC(=O)N2[C@H]1c1ccc(O)cc1"
result_value = 0.688

[[record]]
molecule = "O=C(O)[C@@]1(Cc2ccccc2)N=C(c2ccc(OCCCO)cc2)O[C@H]1c1ccccc1"
result_value = 0.529

[[record]]
molecule = "C=C(COC)/C(=C/C[C@H](OC(=O)c1ccncc1)c1cccc(OCCO)c1)c1cc(C(=O)OC)ccc1OC"
result_value = 0.697

[[record]]
molecule = "CCCNC(=O)[C@@]1(c2ccc([N+](=O)[O-])cc2)CC(=O)N(CC23CC4CC(CC(C4)C2)C3)[C@@H]1c1ccc(CO)cc1"
result_value = 0.716

[[record]]
molecule = "CCOC(=O)C[C@H]1[C@H](OC(=O)c2ccc(-c3ccccc3)cc2)[C@@H](NC(=O)c2ccc3ccccc3c2)c2cc(OCCCO)ccc2N1C(=O)Cc1ccc(OC)cc1"
result_value = -0.0752

[[record]]
molecule = "CCN(CC)c1ccc(N2CC=CC34O[C@@H]5/C=C\\CCCOC(=O)C5[C@H]3C(=O)N(C(CO)C(C)C)[C@@H]4C2=O)cc1 (stereo partly drawn)"
result_value = 0.827

[[record]]
molecule = "COc1ccc(C(=O)Nc2cccc(CN3C(=O)[C@@]4(O[C@@H](CCn5cc(CCO)nn5)[C@H]([Si](C)(C)c5ccc(OC)cc5)[C@H]4C)c4ccccc43)c2)cc1"
result_value = 0.411

[[record]]
molecule = "Cc1ccc(S[C@]2(C(=O)O)CC(=O)N(C3Cc4ccccc4C3)[C@@H]2c2ccc(CO)cc2I)cc1"
result_value = 0.675

[[record]]
molecule = "COC(=O)[C@@]1(Cc2ccccc2)N=C(c2ccc(OCCCO)cc2)O[C@H]1c1ccccc1N=[N+]=[N-]"
result_value = 0.111

[[record]]
molecule = "COc1cc2c(cc1O)C(C)N(Cc1cccc(OC(F)(F)F)c1)CC2 (stereo not drawn)"
result_value = 0.662

[[record]]
molecule = "CC=CC(O)C1C=CC2C(=O)N(c3ccccc3)C(=O)C2N1Nc1ccc(C(C)C)cc1 (stereo not drawn)"
result_value = 0.641

[[record]]
molecule = "O=C1OCC=C[C@H]2OC34C=CCN(c5ccc6ccccc6c5)C(=O)[C@H]3N(CCCO)C(=O)[C@@H]4[C@@H]12 (stereo partly drawn)"
result_value = 0.709

[[record]]
molecule = "CC(C)CNC(=O)[C@@H]1c2ccccc2C(=O)N(Cc2cc(C(F)(F)F)cc(C(F)(F)F)c2)[C@H]1c1ccc(CO)cc1"
result_value = 0.5

[[record]]
molecule = "NCCCCCNC(=O)[C@H]1C[C@H]2C(=O)NCC(=O)N2[C@H]1c1cccc(OCCO)c1"
result_value = 0.429

[[record]]
molecule = "COCCOC(=O)N1C(=O)[C@@]2(c3cc(C#CC4=CCCCC4)ccc31)[C@H](C(=O)N1CCc3cc(OC)c(OC)cc3C1)[C@H]1C(=O)O[C@H](c3ccccc3)[C@H](c3ccccc3)N1[C@@H]2c1ccccc1OCCO"
result_value = -0.0205

[[record]]
molecule = "COC(=O)[C@@]1(Cc2ccc(OC)cc2)[C@H]2c3cc(C(=O)N(C)C)n(Cc4c(OC)[nH]cc(C)c4=O)c3C[C@H]2CN1C(=O)c1ccccc1"
result_value = 0.881

[[record]]
molecule = "O=C1N(CCS(=O)(=O)c2ccccc2)c2ccccc2C[C@@]12COC(c1ccc(OCCCO)cc1)=N2"
result_value = 0.636

[[record]]
molecule = "O=C(CS)NCCCCCCNC(=O)[C@@H]1C[C@@H]2C(=O)N3CCC[C@H]3C(=O)N2[C@@H]1c1ccc(O)cc1"
result_value = 0.645

[[record]]
molecule = "C=C[C@@H](COC(C)=O)N(Cc1ccc([N+](=O)[O-])cc1)S(=O)(=O)c1ccc(Br)cc1"
result_value = 0.448

[[record]]
molecule = "COC(=O)[C@@]1(Cc2ccccc2N=[N+]=[N-])COC(c2ccc(OCCCO)cc2)=N1"
result_value = 0.573

[[record]]
molecule = "COC(=O)[C@@]1(Cc2ccc(OC)cc2)[C@H]2c3cc(C(=O)N4CCCC4)n(Cc4ccccn4)c3C[C@H]2CN1C(=O)c1ccccc1"
result_value = 0.82

[[record]]
molecule = "CCC[C@@H]1C=C(C(=O)O)[C@H](c2ccc(C)cc2)N1S(=O)(=O)c1ccc(C)cc1"
result_value = 0.799

[[record]]
molecule = "COc1ccc(NN2C(C(O)c3ccc(OC)c(OCc4ccccc4)c3)C=CC3C(=O)N(C4CCCCC4)C(=O)C32)cc1 (stereo not drawn)"
result_value = 0.274

[[record]]
molecule = "[N-]=[N+]=Nc1ccccc1C[C@]1(C(=O)NCCN2CCOCC2)N=C(c2ccc(OCCCO)cc2)O[C@H]1c1ccccc1"
result_value = 0.597

[[record]]
molecule = "COCCOC(=O)N1C(=O)[C@@]2(c3cc(C#CCNC(N)=O)ccc31)[C@H](c1ccc(O)cc1)N1[C@H](c3ccccc3)[C@H](c3ccccc3)OC(=O)[C@H]1[C@@H]2C(=O)Nc1nc2ccccc2s1"
result_value = 0.266

[[record]]
molecule = "CC(=O)NCCCC[C@@H]1NC(=O)[C@@H]2C[C@H](C(=O)NCCCCCCNC(=O)CS)[C@H](c3ccc(O)cc3)N2C1=O"
result_value = 0.597

